IC50 overview
# tgt: MAPK14;MAPK11;MAPK12 (human) (UniProt Q16539)
# experiment: Inhibition of p38 Kinase Activity

Some solved entries appear below for comparison.
INSERT INTO results (molecule, result_type, meas_value) VALUES
  ('CCONC(=O)c1ccc(C)c(Nc2nc(N[C@H]3CCNC3)nc(N(C)CC(C)(C)C)n2)c1', 'IC50', '< 1000 nM'),
  ('Cc1ccc(C(N)=O)cc1Nc1nc(NC2CCS(=O)(=O)C2)nc(N(C)CC(C)(C)C)n1 (configuration not stated)', 'IC50', '< 1000 nM'),
  ('Cc1c(Cl)cc(C(N)=O)cc1Nc1nc(N[C@H]2CCNC2)nc(N(C)CC(C)C)n1', 'IC50', '< 1000 nM'),
  ('CONC(=O)c1ccc(C)c(Nc2nc(N(C)CC(C)(C)C)cc(N3CCCN(C)CC3)n2)c1', 'IC50', '< 1000 nM'),
  ('CCOC(=O)Nc1ccc(C)c(Nc2nc(N[C@H]3CCNC3)nc(N(C)CC(C)(C)C)n2)c1', 'IC50', '< 1000 nM'),
  ('CN(CC1CC[C@H]2C[C@@H]1C2(C)C)c1nc(Nc2ccc3ncsc3c2)nc(N2CCN(C(=O)CCC(=O)O)CC2)n1 (some centres not stated)', 'IC50', '< 10000 nM');

Hello, please tell me recorded IC50 for this one: Cc1c(Cl)cc(C(N)=O)cc1Nc1nc(N[C@H]2CCNC2)nc(N(C)CC(C)(C)C)n1
< 1000 nM

Supply recorded IC50 for Cc1ccc(C)c(CN2CC[C@H](Nc3nc(Nc4cc(C(N)=O)ccc4C)nc(N(C)CC(C)C)n3)C2)c1 here.
< 1000 nM

Quote IC50 reported for Cc1ccc(C(N)=O)cc1Nc1nc(N[C@H]2CCNC2)nc(N(C)CC23CC4CC(CC(C4)C2)C3)n1 please.
< 1000 nM

// fetch IC50 given entry CN(CCN(C)c1nc(NCC2CCC3CC2C3(C)C)nc(Nc2ccc3ncccc3c2)n1)C(=O)CCC(=O)O (configuration not stated)
< 10000 nM

For the molecule CCONC(=O)c1ccc(C)c(Nc2nc(N[C@@H]3CCNC3)nc(N(C)CC(C)C(F)(F)F)n2)c1 (some centres not stated) , give its reported IC50.
< 1000 nM

====

Catalogue of molecules with associated IC50
# tgt: MAPK14;MAPK11;MAPK12 (human) (UniProt Q16539)
# experiment: Inhibition of p38 Kinase Activity

Observe how each entry below is paired with its result.
INSERT INTO assay_data (molecule, meas_value) VALUES
  ('COC(=O)Nc1ccc(C)c(Nc2nc(N[C@H]3CCNC3)nc(N(C)CC(C)(C)C)n2)c1', '< 1 µM'),
  ('Cc1ccc(C(N)=O)cc1Nc1nc(NCC23CC4CC(CC(C4)C2)C3)nc(N[C@@H]2CCNC2)n1', '< 1 µM'),
  ('CCONC(=O)c1ccc(C)c(Nc2nc(N[C@H]3CCNC3)nc(N(C)CC(C)C)n2)c1', '< 1 µM'),
  ('O=S(=O)(Nc1ncccn1)c1ccc(Nc2nc(Cl)nc(NCCc3ccccc3)n2)cc1', '< 10 µM'),
  ('Cc1ccc(C(N)=O)cc1Nc1nc(N[C@H]2CCCC[C@H]2NC(C)C)nc(N(C)CC(C)(C)C)n1', '< 1 µM');

Provide measured IC50 on MAPK14;MAPK11;MAPK12 (human) (UniProt Q16539) for NC(=O)CNc1nc(Nc2ccc3ncsc3c2)nc(NC2CCc3ccccc32)n1 (centres undefined) please.
< 10 µM

Retrieve IC50 on MAPK14;MAPK11;MAPK12 (human) (UniProt Q16539); query Cc1ccc(C(N)=O)cc1Nc1nc(NC[C@H]2CCCN2)nc(N(C)CC2CCCC2)n1
< 1 µM

Print MAPK14;MAPK11;MAPK12 (human) (UniProt Q16539) IC50 for CCC(CNc1nc(Cl)nc(Nc2ccc3ncsc3c2)n1)c1ccccc1 (centres undefined) .
< 10 µM

Determine reported IC50 for CONC(=O)c1ccc(C)c(Nc2nc(NCc3ccccc3)nc(N(C)CC(C)(C)C)n2)c1 ; test system: MAPK14;MAPK11;MAPK12 (human) (UniProt Q16539).
< 1 µM

Check MAPK14;MAPK11;MAPK12 (human) (UniProt Q16539) data and give IC50 for Cc1ccc(C(N)=O)cc1Nc1nc(CCC(C)C)nc(N[C@H]2CCNC2)n1 .
< 1 µM

State IC50 (MAPK14;MAPK11;MAPK12 (human) (UniProt Q16539)) of Cn1ccc2cc(Nc3nc(Cl)nc(NC[C@@H]4CC[C@H]5C[C@@H]4C5(C)C)n3)ccc21 .
< 10 µM

====

# tgt: MAPK14;MAPK11;MAPK12 (human)
# experiment: Inhibition of p38 Kinase Activity
pIC50: −log10 of the molar value.
result-type: pIC50

INSERT INTO measurements (molecule, meas_value) VALUES
  ('Cc1ccc(C(N)=O)cc1Nc1nc(NCCC(C)(C)C)nc(N[C@@H]2CCNC2)n1', '> 6.00'),
  ('CNC(=O)c1ccc(C)c(Nc2nc(O[C@H]3CCNC3)nc(N(C)CC(C)(C)C)n2)c1', '> 6.00'),
  ('CC1(C)[C@H]2CCC(CNc3nc(Cl)nc(Nc4ccc(S(=O)(=O)Nc5ncccn5)cc4)n3)[C@@H]1C2 (some centres not stated)', '> 5.00'),
  ('CNC(=O)c1ccc(C)c(Nc2nc(NC3CNC3)nc(N(C)CC(C)(C)C)n2)c1', '> 6.00'),
  ('c1ccc2c(c1)CCN(c1nc(Nc3ccc4ncsc4c3)nc(N3CCNCC3)n1)C2', '> 5.00'),
  ('CCCc1ccc(C(N)=O)cc1Nc1nc(N[C@H]2CCNC2)nc(N(C)CC(C)(C)C)n1', '> 6.00'),
  ('CC(=O)Nc1ccc(C)c(Nc2nc(NCC(C)(C)C)nc(N[C@H]3CCNC3)n2)c1', '> 6.00'),
  ('Cc1ccc(C(N)=O)cc1Nc1nc(NC2CCN(Cc3ccc(C(C)C)cc3)C2)nc(N(C)CC(C)C)n1 (configuration not stated)', '> 6.00'),
  ('Cc1ccc(C(N)=O)cc1Nc1nc(NCC23CC4CC(CC(C4)C2)C3)nc(NC2CCNC2)n1 (configuration not stated)', '> 6.00'),
  ('CC(C)CN(C)c1nc(NC2CCN(CC3CCNCC3)C2)nc(NC2CC(C(N)=O)CCC2C)n1 (configuration not stated)', '> 6.00');

Enter measured pIC50, system MAPK14;MAPK11;MAPK12 (human), for the molecule shown: Cc1ccc(C(N)=O)cc1Nc1nc(NC[C@@H]2CC[C@H]3C[C@H]2C3(C)C)nc(NC2CCNCC2)n1
> 6.00

Provide pIC50, tested on MAPK14;MAPK11;MAPK12 (human), for Cc1c(Nc2nc(NC[C@@H]3CC[C@H]4C[C@H]3C4(C)C)nc(N(C)CC(C)C)n2)cccc1C(N)=O .
> 6.00

Report pIC50 from MAPK14;MAPK11;MAPK12 (human) testing of CNCCN(C)c1nc(NCC2CCC3CC2C3(C)C)nc(Nc2ccc3ncccc3c2)n1 (configuration not stated)
> 5.00

Specify pIC50 for CONC(=O)c1ccc(C)c(Nc2nc(N[C@H]3CCN(C(C)C)C3)nc(N(C)CC(C)(C)C)n2)c1 , system MAPK14;MAPK11;MAPK12 (human).
> 6.00

Enter pIC50 (test system MAPK14;MAPK11;MAPK12 (human)) for CC(CNc1nc(Nc2ccc3ncsc3c2)nc(N(C)CCCN(C)C(=O)c2ccccc2)n1)c1ccccc1 (configuration not stated)
> 5.00

====

# tgt: UniProt:Q16539
# experiment: Inhibition of p38 Kinase Activity
// reported IC50 per item

Below, each entry is followed by its recorded IC50 result.
INSERT INTO results (molecule, tgt, meas_value) VALUES
  ('Cc1ccc(C(N)=O)cc1Sc1nc(N[C@@H]2CCNC2)nc(N(C)CC(C)(C)C)n1', 'UniProt:Q16539', '< 30 µM'),
  ('Cc1ccc(C(=O)Nc2cccc(F)c2)cc1Nc1nc(N[C@H]2CCNC2)nc(N(C)CC(C)(C)C)n1', 'UniProt:Q16539', '< 1 µM'),
  ('Cc1ccc(COC(=O)C(F)(F)F)cc1Nc1nc(N[C@H]2CCNC2)nc(N(C)CC(C)C)n1', 'UniProt:Q16539', '< 1 µM'),
  ('Cc1ccc(C(N)=O)cc1Nc1nc(NC2CCCNC2)nc(N(C)CC(C)(C)C)n1 (centres undefined)', 'UniProt:Q16539', '< 1 µM'),
  ('Cc1ccc(C(N)=O)cc1Nc1nc(NC2CCCCNC2)nc(N(C)CC(C)(C)C)n1 (centres undefined)', 'UniProt:Q16539', '< 1 µM'),
  ('CCCCNc1nc(Nc2cc(C(N)=O)ccc2C)nc(N[C@H]2CCNC2)n1', 'UniProt:Q16539', '< 1 µM'),
  ('CC(C)Oc1nc(NCC(C)c2ccccc2)nc(Nc2ccc3ncsc3c2)n1 (centres undefined)', 'UniProt:Q16539', '< 10 µM'),
  ('Cc1ccc(C(N)=O)cc1Nc1nc(NC2Cc3ccccc3C2)nc(N[C@@H]2CCNC2)n1', 'UniProt:Q16539', '< 1 µM');

Shifting focus to the molecule that follows.
Give IC50 for this entry on UniProt:Q16539: Cc1ccc(C(N)=O)cc1Nc1nc(NC2CNC2)nc(N(C)CC(C)(C)C)n1
< 1 µM

Entry source: the Kinase Knowledgebase extract (Sharma et al. 2016)
